Experiment: clinical;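 further: noncompartmental pharmacokinetic analysis in subjects with solid tumors, using linear-up log-down interpolation, with terminal slope time points picked automatically by the software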
Conditions: human, plasma, po, 225 mg/m2, AUC0-24, oral 225 mg/m^2 with Compound A; individual subjects
property_measured: AUC(0-t) (ng·h/mL)
The reply should be a number in ng·h/mL, with the unit left off.

Q: Data request, read-out AUC(0-t), for CC(=O)O[C@@]12CO[C@@H]1C[C@H](O)[C@@]1(C)C(=O)[C@H](O)C3=C(C)[C@@H](OC(=O)[C@H](O)[C@@H](NC(=O)OC(C)(C)C)c4ccccc4)C[C@@](O)([C@@H](OC(=O)c4ccccc4)[C@H]21)C3(C)C [docetaxel]
Result: 986
